# Test target: T1, human LAP-TGFB1 Fc fusion (human)
# T1 construct: also called human LAP-TGFβ1-Fc; human LAP-TGFβ-Fc isoform 1
# T1 sequence (chain, as listed by the source limits assumed): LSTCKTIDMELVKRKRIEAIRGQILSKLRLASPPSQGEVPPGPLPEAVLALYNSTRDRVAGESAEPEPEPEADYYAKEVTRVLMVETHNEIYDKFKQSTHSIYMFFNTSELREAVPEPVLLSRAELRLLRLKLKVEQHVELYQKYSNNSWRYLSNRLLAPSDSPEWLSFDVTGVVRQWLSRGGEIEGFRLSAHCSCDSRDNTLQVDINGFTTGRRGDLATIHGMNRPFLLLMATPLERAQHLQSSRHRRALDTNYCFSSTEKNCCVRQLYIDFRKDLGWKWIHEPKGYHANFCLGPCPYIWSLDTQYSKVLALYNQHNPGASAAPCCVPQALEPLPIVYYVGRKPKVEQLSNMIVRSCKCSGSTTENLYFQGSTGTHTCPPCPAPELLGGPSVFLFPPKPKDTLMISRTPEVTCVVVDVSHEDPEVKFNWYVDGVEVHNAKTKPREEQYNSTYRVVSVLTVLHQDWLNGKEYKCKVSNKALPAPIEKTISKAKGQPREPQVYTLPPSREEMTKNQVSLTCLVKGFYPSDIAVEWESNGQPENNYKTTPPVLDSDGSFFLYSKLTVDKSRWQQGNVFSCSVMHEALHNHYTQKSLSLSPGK
# Assay name: BLI off-rate screen
Entries annotated with measured koff
Readout name: koff (s⁻¹)

[
  {
    "Binder": "VH F29Y (68BIT) (Fab, V domains shown) VH: EVQLVQSGAEVKKPGASVKVSCKASGYTYTSYWMHWVRQAPGQGLEWMGRIDPQSGGIKYAQKFQGRATLTVDTSTSTAYMELSRLRSDDTAVYYCARWDYGGYFDVWGQGTLVTVSS VL: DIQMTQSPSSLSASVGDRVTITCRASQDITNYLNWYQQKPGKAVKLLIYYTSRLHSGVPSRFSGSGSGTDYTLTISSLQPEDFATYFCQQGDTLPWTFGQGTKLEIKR",
    "Experimental result": 0.0336
  },
  {
    "Binder": "VH I51Y (76BIT) (Fab, V domains shown) VH: EVQLVQSGAEVKKPGASVKVSCKASGYTFTSYWMHWVRQAPGQGLEWMGRYDPQSGGIKYAQKFQGRATLTVDTSTSTAYMELSRLRSDDTAVYYCARWDYGGYFDVWGQGTLVTVSS VL: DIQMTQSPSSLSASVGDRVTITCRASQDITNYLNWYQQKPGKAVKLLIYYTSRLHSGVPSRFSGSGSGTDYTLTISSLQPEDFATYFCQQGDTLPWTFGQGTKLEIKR",
    "Experimental result": 0.0379
  },
  {
    "Binder": "VH S54Y (80BIT) (Fab, V domains shown) VH: EVQLVQSGAEVKKPGASVKVSCKASGYTFTSYWMHWVRQAPGQGLEWMGRIDPQYGGIKYAQKFQGRATLTVDTSTSTAYMELSRLRSDDTAVYYCARWDYGGYFDVWGQGTLVTVSS VL: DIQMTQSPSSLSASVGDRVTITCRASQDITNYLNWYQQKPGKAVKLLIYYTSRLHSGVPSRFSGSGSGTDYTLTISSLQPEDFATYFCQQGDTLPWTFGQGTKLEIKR",
    "Experimental result": 0.0406
  }
]
